All figures here come from patent US10792633B2.

# EXPERIMENTAL_DETAILS: Measurement of surface tension at suspended drop (Drop Shape Analyser DSA 25)
# Assay type: physicochemical
# ASSAY_CONTEXT: surfactant in water 0.5 wt %; n = 10; 24.5-25.1° C.
EXPERIMENTAL_READOUT: OFS (surface tension) (mN/m)
// units = mN/m; emit number, no label

COMPOUND: Cn1cc[n+](CCCS(=O)(=O)[O-])c1SCCC(F)(F)C(F)(F)C(F)(F)C(F)(F)C(F)(F)C(F)(F)F [Synthesis Example 6]
EXPERIMENTAL_READOUT: OFS (surface tension)
REPORTED_MEASUREMENT: 24.94

COMPOUND: CS(=O)(=O)O.Cn1ccnc1SCCC(F)(F)C(F)(F)C(F)(F)C(F)(F)C(F)(F)C(F)(F)F
EXPERIMENTAL_READOUT: OFS (surface tension)
REPORTED_MEASUREMENT: 16.21

COMPOUND: O=C(O)C(F)(F)C(F)(F)C(F)(F)C(F)(F)C(F)(F)C(F)(F)C(F)(F)F [Perfluorooctanoic acid, reference compound]
EXPERIMENTAL_READOUT: OFS (surface tension)
REPORTED_MEASUREMENT: 16

Now for another entry.
[Q] Give its OFS (surface tension) value. Item: N.O=C(O)C(F)(F)C(F)OC(F)(F)C(F)(F)C(F)(F)OC(F)(F)F (stereo not shown) [Ammonium-4,8-dioxa-3H-perfluorononanoate, reference compound]
[A] 46.42

====

# EXPERIMENTAL_DETAILS: Determining the solubility in water
# Assay type: physicochemical
# ASSAY_CONTEXT: water, 23 °C, water, thermodynamic from solid; read-out: water solubility
EXPERIMENTAL_READOUT: solubility at 5 min

[Q] Field request: solubility at 5 min | item: Cn1cc[n+](CCCS(=O)(=O)[O-])c1SCCC(F)(F)C(F)(F)C(F)(F)C(F)(F)C(F)(F)C(F)(F)F [Synthesis Example 6]
[A] ~160 mg/mL
